target-entity: HLA-B*46:01
test-method-notes: IEDB peptide-MHC binding, purified MHC/direct/fluorescence; filed as Kd, often an IC50 or EC50 that approximates it; bounds were set here for any values at or beyond the usual limits of such assays
run-conditions: source organism: Dengue virus 1 Singapore/S275/1990
pKd: −log10 of the molar value.
experimental-endpoint: pKd

Per the records, this sequence ( GMGEAAAIF ) has pKd equal to ≤ 4.70

----------
target-entity: HLA-A*23:01
test-method-notes: IEDB peptide-MHC binding, purified MHC/direct/fluorescence; filed as Kd, often an IC50 or EC50 that approximates it; bounds were set here for any values at or beyond the usual limits of such assays
run-conditions: source organism: Reston ebolavirus
experimental-endpoint: Kd

Per the records, this sequence ( LPRERFRKT ) has Kd equal to ≥ 20 µM
